Each recorded value in this set is attributed to PubChem BioAssay (NCI).

# ASSAY_PROTOCOL: NCI Yeast Anticancer Drug Screen. Data for the mec2-1 strain (AID 157)
# RUN_CONDITIONS: S. cerevisiae mec2-1 strain, stronger effect = higher value; at 50.0 µM unless noted
Compounds without any hit were thinned out: in the full panel of roughly 79,000, 15% have a hit. Where a SMILES comes first, the peptide text is derived from it. [ ]: non-standard residue; d: D form. The star is where a group is joined. NMeF = CN[C@@H](Cc1ccccc1)C(=O)O; NMeV = CN[C@H](C(=O)O)C(C)C; Boc = CC(C)(C)OC(=O)*; OBn = c1ccc(CO*)cc1
Field: growth inhibition. Provide a value for each of the compounds that follow.
Return type: number; implicit unit %.

query: Supply growth inhibition value. Item: S=C(NCc1cccc(Cl)c1)Nc1ccccc1
result: 27.9

query: Supply growth inhibition value. Item: CCOC(=O)c1ccc(NC(=O)Nc2cc(Cl)ccc2C)cc1
result: 8.45

query: Supply growth inhibition value. Item: C=CCc1cc(-c2cc(CC=C)c(O)c(CN(CC)CC)c2)cc(CN(CC)CC)c1O
result: -5.2

query: Supply growth inhibition value. Item: COc1ccc(-n2c(CCC(=O)O)nc3c2C(=O)c2ccccc2C3=O)cc1
result: 17.6

query: Supply growth inhibition value. Item: CC(C)NC(=O)OCc1c(COC(=O)NC(C)C)c(-c2ccccc2)n(C)c1-c1ccccc1
result: 2.05

query: Supply growth inhibition value. Item: CC(=O)OCC1OC(n2c(=O)[nH]c(=O)c3n[nH]nc32)C(OC(C)=O)C(OC(C)=O)C1OC(C)=O (centres undefined)
result: 7.15

query: Supply growth inhibition value. Item: CC(=O)c1ccc(NC(=O)C(=O)C(C(=O)c2ccc(Cl)c(Cl)c2)C2OC(=O)c3ccccc32)cc1 (centres undefined)
result: 38.8

query: Supply growth inhibition value. Item: BrCC1CN=C(c2ccccc2)O1 (centres undefined)
result: -4

query: Supply growth inhibition value. Item: COCS(=O)(=O)c1ccccc1
result: -6.1

query: Supply growth inhibition value. Item: CCCCCCCCCCC1CC(=O)OC1=O (centres undefined)
result: 14.7

query: Supply growth inhibition value. Item: O=C(CC1SC(=Nc2ccccc2Cl)NC1=O)Nc1ccc(Cl)cc1Cl (centres undefined)
result: -14.8

query: Supply growth inhibition value. Item: O=C1NC2OCC(O)C(O)C2O1 (centres undefined)
result: 10.1

query: Supply growth inhibition value. Item: O=C(O)CCCn1nnc2c(=O)[nH][nH]c(=O)c21
result: 5.65

query: Supply growth inhibition value. Item: C[n+]1cn(-c2nc3ccccc3nc2[N-]S(=O)(=O)c2ccccc2)c2ccccc21
result: -5.7

query: Supply growth inhibition value. Item: CCCCCCC(O)C[N+](=O)[O-] (centres undefined)
result: -28.9

query: Supply growth inhibition value. Item: CC(C)[C@@H](C(=O)N1CCC[C@H]1C(=O)OCc1ccccc1)N(C)C(=O)[C@H](C(C)C)N(C)C(=O)[C@H](Cc1ccccc1)N(C)C(=O)[C@H](NC(=O)OC(C)(C)C)C(C)C (Boc-[dV][NMeF][NMeV][NMeV]P-OBn)
result: -42.1

query: Supply growth inhibition value. Item: Cc1ccc2c(-c3cccc4ccccc34)c3ccccc3cc2c1
result: 9.65

query: Supply growth inhibition value. Item: CCOC(=O)C(NC(=O)CC)(Nc1ccc(S(=O)(=O)Nc2nc(C)cc(C)n2)cc1)C(F)(F)F (centres undefined)
result: -3.4

query: Supply growth inhibition value. Item: CNCCc1cn(C2OC(CO)C(O)C(O)C2O)cn1 (centres undefined)
result: -17.6
